Each recorded value in this set is attributed to patent US6075029A.

# assay_target: P-4501A2 (Homo sapiens)
# measurement_description: Inhibition of P-450 mediated caffeine metabolism to paraxanthine in human liver microsomes
# run_parameters: human, liver microsomes
# Method: The model system directly measures inhibition of P-4501A2-mediated metabolism in the physiological environment of human liver microsomes. Measurement of drug metabolism in a microsome system is directly predictive of liver metabolism in vivo. […] Microsomes were prepared by standard techniques from four human livers. […] Three sets of enantiomers, CT2408 R&S, CT2410 R&S, and CT2412 R&S, were evaluated for inhibition of caffeine metabolism to paraxanthine by P-450. […]
measure_name: activity at 20 min, 100 µM (%)

compound: Cc1nc2c([nH]1)c(=O)n(CCCC[C@H](C)O)c(=O)n2Cc1ccco1 [CT2412S]
readout_number: 51.7

A. Cc1nc2c([nH]1)c(=O)n(CCCC[C@@H](C)O)c(=O)n2Cc1ccco1 [CT2412R]
B. Cc1nc2c(c(=O)n(CCCC[C@@H](C)O)c(=O)n2C)n1C [CT2410R]
I'd appreciate it if you could identify which of A and B has the greater activity at 20 min, 100 µM. Label of pick, please. B

A. C[C@@H](O)CCCCn1c(=O)c2c(ncn2C)n(C)c1=O [LSF, reference compound]
B. Cc1nc2c([nH]1)c(=O)n(CCCC[C@@H](C)O)c(=O)n2C [CT2408R]
Of the two listed items, A and B , which carries the larger activity at 20 min, 100 µM figure? Give the chosen item's label as your response. A
(A: 85.8%, B: 46.6%)

I. Cc1nc2c([nH]1)c(=O)n(CCCC[C@H](C)O)c(=O)n2C [CT2408S]
II. Cc1nc2c(c(=O)n(CCCC[C@H](C)O)c(=O)n2C)n1C [CT2410S]
Pick one: I or II . Which one has the lower reported activity at 20 min, 100 µM? Mark your answer with the label of the selected entry. I

###

# assay_target: P-4501A2 (Homo sapiens)
# measurement_description: Inhibition of P-450 mediated caffeine metabolism to paraxanthine in human liver microsomes
# run_parameters: human, microsomes
measure_name: activity at 20 min, 100 µM (%)
Just the number please, in %, no unit attached.

Form field: reported activity at 20 min, 100 µM of Cc1nc2c([nH]1)c(=O)n(C)c(=O)n2Cc1ccco1 10.1

###

# assay_target: P-4501A2 (Homo sapiens, UniProt P05177)
# Sequence (P05177 whole entry): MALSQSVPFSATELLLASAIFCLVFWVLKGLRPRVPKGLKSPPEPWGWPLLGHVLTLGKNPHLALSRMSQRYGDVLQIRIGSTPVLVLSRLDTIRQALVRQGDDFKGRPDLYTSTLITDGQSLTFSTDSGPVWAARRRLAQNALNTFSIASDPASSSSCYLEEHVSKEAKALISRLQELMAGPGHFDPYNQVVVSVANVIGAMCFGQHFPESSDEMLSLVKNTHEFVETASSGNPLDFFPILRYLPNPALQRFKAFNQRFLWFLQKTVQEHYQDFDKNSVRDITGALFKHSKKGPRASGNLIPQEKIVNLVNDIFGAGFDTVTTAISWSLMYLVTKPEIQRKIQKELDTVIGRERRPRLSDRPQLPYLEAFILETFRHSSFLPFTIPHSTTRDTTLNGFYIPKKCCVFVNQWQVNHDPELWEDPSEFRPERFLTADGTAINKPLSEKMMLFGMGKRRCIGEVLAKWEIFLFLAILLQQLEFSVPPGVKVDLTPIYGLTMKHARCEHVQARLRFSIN
# measurement_description: Inhibition of P-450 mediated caffeine metabolism to paraxanthine in human liver microsomes
# run_parameters: human, liver microsomes
measure_name: activity at 5 min, 100 µM (%)

compound: Cc1nc2c([nH]1)c(=O)n(CCCC[C@@H](C)O)c(=O)n2C [CT2408R]
measure_name: activity at 5 min, 100 µM
readout_number: 73.9

compound: Cc1nc2c([nH]1)c(=O)n(CCCC[C@H](C)O)c(=O)n2Cc1ccco1 [CT2412S]
measure_name: activity at 5 min, 100 µM
readout_number: 75.6

compound: Cc1nc2c(c(=O)n(CCCC[C@H](C)O)c(=O)n2C)n1C [CT2410S]
measure_name: activity at 5 min, 100 µM
readout_number: 91

compound: C[C@@H](O)CCCCn1c(=O)c2c(ncn2C)n(C)c1=O [LSF, reference compound]
measure_name: activity at 5 min, 100 µM
readout_number: 91

compound: Cc1nc2c(c(=O)n(CCCC[C@@H](C)O)c(=O)n2C)n1C [CT2410R]
measure_name: activity at 5 min, 100 µM
readout_number: 87.8

compound: Cc1nc2c([nH]1)c(=O)n(CCCC[C@@H](C)O)c(=O)n2Cc1ccco1 [CT2412R]
measure_name: activity at 5 min, 100 µM
readout_number: 82.8

compound: Cc1nc2c([nH]1)c(=O)n(CCCC[C@H](C)O)c(=O)n2C [CT2408S]
measure_name: activity at 5 min, 100 µM
readout_number: 71
